System: Ribosomal protein S6 kinase alpha-1 (Homo sapiens) (UniProt Q15418);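 also: values are mean percent inhibition of RSK1 measured in the GSK PKIS kinase inhibitor set screen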
Sequence (Q15418 whole entry): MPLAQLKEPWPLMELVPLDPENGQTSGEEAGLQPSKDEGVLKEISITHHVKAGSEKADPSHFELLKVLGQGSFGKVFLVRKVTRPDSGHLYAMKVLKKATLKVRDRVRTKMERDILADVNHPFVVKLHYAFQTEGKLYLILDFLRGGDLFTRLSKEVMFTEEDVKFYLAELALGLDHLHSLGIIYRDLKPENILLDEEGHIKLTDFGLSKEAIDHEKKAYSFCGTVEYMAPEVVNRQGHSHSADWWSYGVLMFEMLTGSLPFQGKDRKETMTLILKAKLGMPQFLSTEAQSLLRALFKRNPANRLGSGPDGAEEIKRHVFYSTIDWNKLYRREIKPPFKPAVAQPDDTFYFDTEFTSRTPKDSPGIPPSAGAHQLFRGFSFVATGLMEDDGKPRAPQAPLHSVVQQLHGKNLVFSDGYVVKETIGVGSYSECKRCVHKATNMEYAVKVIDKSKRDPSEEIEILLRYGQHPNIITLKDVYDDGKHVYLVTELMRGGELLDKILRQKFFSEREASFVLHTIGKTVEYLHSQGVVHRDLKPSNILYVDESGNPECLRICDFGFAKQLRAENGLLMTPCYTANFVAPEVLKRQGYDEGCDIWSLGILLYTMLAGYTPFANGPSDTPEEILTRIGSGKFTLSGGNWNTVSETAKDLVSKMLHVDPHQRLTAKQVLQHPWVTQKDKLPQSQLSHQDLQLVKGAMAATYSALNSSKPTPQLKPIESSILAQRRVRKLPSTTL
Experimental Setup: at 0.1 µM
Metric Name: inhibition (%)
The answer is to be given in %; state only the numeric part.

{"Smiles Data": "COc1cccc(-n2ncc3c(N/N=C/c4ccncc4)ncnc32)c1", "Test Value": 3.51}

Enquiry: Identify inhibition associated with the compound CCn1c(-c2nonc2N)nc2c(C#CC(C)(C)O)ncc(OC[C@@H]3CCCN3)c21
Return: -0.68

Enquiry: Identify inhibition associated with the compound COc1cc2c(cc1Nc1nc(Nc3ccsc3C(N)=O)c3cc[nH]c3n1)N(C(=O)CN(C)C)CCC2
Return: 7.13

Enquiry: Identify inhibition associated with the compound Nc1nonc1-c1nc2cnccc2n1C1CCCCC1
Return: 52.1

Enquiry: Identify inhibition associated with the compound CCn1c(-c2nonc2N)nc2c(C#CCN)ncc(OCCCN)c21
Return: 20.1

Enquiry: Identify inhibition associated with the compound NS(=O)(=O)c1ccc(-c2ccc3c(NC(=O)C4CC4)n[nH]c3c2)cc1
Return: 1.47

Enquiry: Identify inhibition associated with the compound COc1cccc(COc2cc(-n3cnc4ccccc43)sc2C(N)=O)c1
Return: 0.37

Enquiry: Identify inhibition associated with the compound Cc1cc(-c2ccco2)cc(C)c1/C=C/c1cncc(-c2nn[nH]n2)c1
Return: 0.75

---

Listed here are compounds together with their documented inhibition.
System: Serine/threonine-protein kinase Sgk3 (Homo sapiens);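 also: reported percentages are averaged inhibition values against SGK3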
Experimental Setup: at 0.1 µM
The answer is to be given in %; state only the numeric part.

Some solved cases for reference:
{"Smiles Data": "CCn1c(-c2nonc2N)nc2c(C#CC(C)(C)O)ncc(OC[C@@H]3CCCN3)c21", "Metric Name": "inhibition", "Display Unit": "%", "Test Value": 12.7}
{"Smiles Data": "COc1cc(C=NNc2ncnc3c2cnn3Cc2ccccc2)ccc1O", "Metric Name": "inhibition", "Display Unit": "%", "Test Value": -2.5}
{"Smiles Data": "Fc1ccc(-c2ncn(C3CCNCC3)c2-c2ccnc(Oc3ccccc3)n2)cc1", "Metric Name": "inhibition", "Display Unit": "%", "Test Value": 0.78}
{"Smiles Data": "Nc1nonc1-c1nc2cnccc2n1C1CCCCC1", "Metric Name": "inhibition", "Display Unit": "%", "Test Value": 7.01}

Enquiry: Identify inhibition associated with the compound Cc1cc(-c2ccco2)cc(C)c1/C=C/c1cncc(-c2nn[nH]n2)c1
Return: -0.03

---

Listed here are compounds together with their documented inhibition.
System: Rho-associated protein kinase 2 (Homo sapiens) (UniProt O75116)
Sequence (O75116 whole entry, looked up): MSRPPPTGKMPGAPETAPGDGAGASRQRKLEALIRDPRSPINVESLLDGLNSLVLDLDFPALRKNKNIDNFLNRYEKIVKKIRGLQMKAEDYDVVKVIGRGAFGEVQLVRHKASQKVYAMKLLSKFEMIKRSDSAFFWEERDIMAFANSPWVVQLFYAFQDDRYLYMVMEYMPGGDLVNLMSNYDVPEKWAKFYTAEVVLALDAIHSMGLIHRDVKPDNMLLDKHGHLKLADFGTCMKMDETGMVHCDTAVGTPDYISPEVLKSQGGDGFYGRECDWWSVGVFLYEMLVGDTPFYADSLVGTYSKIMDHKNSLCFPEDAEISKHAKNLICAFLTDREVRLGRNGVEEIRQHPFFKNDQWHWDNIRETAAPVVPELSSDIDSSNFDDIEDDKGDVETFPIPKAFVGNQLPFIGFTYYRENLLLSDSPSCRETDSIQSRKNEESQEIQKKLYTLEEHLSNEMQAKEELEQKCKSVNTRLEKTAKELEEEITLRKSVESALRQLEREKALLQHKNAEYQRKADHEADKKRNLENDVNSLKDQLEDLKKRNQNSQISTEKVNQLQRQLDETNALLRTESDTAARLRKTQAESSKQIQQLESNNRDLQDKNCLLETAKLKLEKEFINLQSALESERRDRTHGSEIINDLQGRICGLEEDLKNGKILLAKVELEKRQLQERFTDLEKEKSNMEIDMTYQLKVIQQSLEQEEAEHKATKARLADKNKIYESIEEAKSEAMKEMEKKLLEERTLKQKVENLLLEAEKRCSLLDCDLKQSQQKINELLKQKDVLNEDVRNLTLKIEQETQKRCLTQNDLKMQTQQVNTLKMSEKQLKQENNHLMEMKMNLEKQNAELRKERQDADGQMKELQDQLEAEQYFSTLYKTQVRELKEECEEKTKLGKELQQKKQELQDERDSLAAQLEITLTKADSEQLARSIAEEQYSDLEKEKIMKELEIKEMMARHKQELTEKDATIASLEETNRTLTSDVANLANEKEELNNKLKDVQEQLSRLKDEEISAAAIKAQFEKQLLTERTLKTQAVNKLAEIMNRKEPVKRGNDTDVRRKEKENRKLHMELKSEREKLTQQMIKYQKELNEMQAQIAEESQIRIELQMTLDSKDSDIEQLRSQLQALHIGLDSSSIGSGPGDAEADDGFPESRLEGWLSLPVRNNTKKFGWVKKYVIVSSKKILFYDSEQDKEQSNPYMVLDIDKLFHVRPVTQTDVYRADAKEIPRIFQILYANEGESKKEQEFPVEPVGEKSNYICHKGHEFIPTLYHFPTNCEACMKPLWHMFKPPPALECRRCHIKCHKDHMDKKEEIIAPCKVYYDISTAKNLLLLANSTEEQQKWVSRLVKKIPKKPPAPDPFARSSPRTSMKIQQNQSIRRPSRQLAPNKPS
Experimental Setup: at 1 µM
Description: GSK_PKIS: ROCK2 mean inhibition at 1 uM [Nanosyn]
The answer is to be given in %; state only the numeric part.

Some solved cases for reference:
{"Smiles Data": "NC(=O)c1sc(-n2cnc3cc(C(F)(F)F)ccc32)cc1OCc1ccccc1Br", "inhibition [%]": 1.05}
{"Smiles Data": "NS(=O)(=O)c1ccc(-c2ccc3c(NC(=O)C4CC4)n[nH]c3c2)cc1", "inhibition [%]": 1.01}

Enquiry: Identify inhibition associated with the compound COc1cccc(COc2cc(-n3cnc4ccccc43)sc2C(N)=O)c1
Return: 0.84

---

Listed here are molecules together with their documented inhibition.
System: Calcium/calmodulin-dependent protein kinase type IV (Homo sapiens);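 also: each value is the mean of the measured CAMK4 inhibition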
Experimental Setup: at 1 µM
The answer is to be given in %; state only the numeric part.

Some solved cases for reference:
{"Smiles Data": "CCn1c(-c2nonc2N)nc2c(C#CC(C)(C)O)nc(O[C@@H](CN)c3ccccc3)cc21", "inhibition (%)": 4.51}
{"Smiles Data": "COc1cccc(COc2cc(-n3cnc4ccccc43)sc2C(N)=O)c1", "inhibition (%)": -0.29}
{"Smiles Data": "CCn1c(-c2nonc2N)nc2c(C#CC(C)(C)O)ncc(OCC3CCNCC3)c21", "inhibition (%)": -2.31}
{"Smiles Data": "Nc1nonc1-c1nc2cnccc2n1C1CCCCC1", "inhibition (%)": 1.19}
{"Smiles Data": "Fc1ccc(-c2ncn(C3CCNCC3)c2-c2ccnc(Oc3ccccc3)n2)cc1", "inhibition (%)": -2.43}
{"Smiles Data": "COc1cc(C=NNc2ncnc3c2cnn3Cc2ccccc2)ccc1O", "inhibition (%)": -3.98}
{"Smiles Data": "CCn1c(-c2nonc2N)nc2c(C#CC(C)(C)O)ncc(OC[C@@H]3CCCN3)c21", "inhibition (%)": -0.65}

Enquiry: Identify inhibition associated with the molecule NS(=O)(=O)c1ccc(-c2ccc3c(NC(=O)C4CC4)n[nH]c3c2)cc1
Return: 0.35

---

System: High affinity nerve growth factor receptor (Homo sapiens);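 also: each value is the mean percent inhibition of TRKA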
Experimental Setup: at 1 µM
Listed here are compounds together with their documented inhibition.
The answer is to be given in %; state only the numeric part.

Some solved cases for reference:
{"Smiles Data": "COc1cccc(-n2ncc3c(N/N=C/c4ccncc4)ncnc32)c1", "System": "High affinity nerve growth factor receptor (Homo sapiens)", "Display Unit": "%", "inhibition": 12.8}
{"Smiles Data": "CCn1c(-c2nonc2N)nc2c(C#CC(C)(C)O)ncc(OC[C@@H]3CCCN3)c21", "System": "High affinity nerve growth factor receptor (Homo sapiens)", "Display Unit": "%", "inhibition": -3.52}
{"Smiles Data": "COc1cccc(COc2cc(-n3cnc4ccccc43)sc2C(N)=O)c1", "System": "High affinity nerve growth factor receptor (Homo sapiens)", "Display Unit": "%", "inhibition": -7.54}

Enquiry: Identify inhibition associated with the compound NS(=O)(=O)c1ccc(-c2ccc3c(NC(=O)C4CC4)n[nH]c3c2)cc1
Return: 0.03

---

System: Serine/threonine-protein kinase 10 (Homo sapiens) (UniProt O94804);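 also: mean percent inhibition of LOK (STK10)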
Sequence (O94804 whole entry, looked up): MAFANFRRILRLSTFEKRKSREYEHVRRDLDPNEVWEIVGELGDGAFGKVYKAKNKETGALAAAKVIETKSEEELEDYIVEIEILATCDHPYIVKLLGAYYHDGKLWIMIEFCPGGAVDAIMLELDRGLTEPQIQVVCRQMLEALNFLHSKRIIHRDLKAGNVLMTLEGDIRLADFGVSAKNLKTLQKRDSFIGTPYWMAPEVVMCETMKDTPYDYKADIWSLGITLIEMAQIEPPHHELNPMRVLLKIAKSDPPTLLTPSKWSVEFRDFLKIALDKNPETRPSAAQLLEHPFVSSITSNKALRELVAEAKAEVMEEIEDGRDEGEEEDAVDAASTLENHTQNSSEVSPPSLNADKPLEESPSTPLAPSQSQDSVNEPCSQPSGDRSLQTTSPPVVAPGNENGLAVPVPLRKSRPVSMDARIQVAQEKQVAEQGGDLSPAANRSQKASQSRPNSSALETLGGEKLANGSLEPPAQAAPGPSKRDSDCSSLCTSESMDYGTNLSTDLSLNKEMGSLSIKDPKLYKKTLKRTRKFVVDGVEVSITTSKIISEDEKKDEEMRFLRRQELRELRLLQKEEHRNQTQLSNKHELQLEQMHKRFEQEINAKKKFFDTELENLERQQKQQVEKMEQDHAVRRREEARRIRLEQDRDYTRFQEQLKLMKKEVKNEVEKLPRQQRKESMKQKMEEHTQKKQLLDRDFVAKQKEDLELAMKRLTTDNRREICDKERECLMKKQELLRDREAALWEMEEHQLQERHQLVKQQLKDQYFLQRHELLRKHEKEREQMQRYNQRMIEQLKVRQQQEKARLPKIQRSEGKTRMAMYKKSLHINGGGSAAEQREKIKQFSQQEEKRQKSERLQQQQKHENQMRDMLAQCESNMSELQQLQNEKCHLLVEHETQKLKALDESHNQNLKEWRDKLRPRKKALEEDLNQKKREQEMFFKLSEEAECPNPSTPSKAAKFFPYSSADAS
Experimental Setup: at 0.1 µM
Decision: inhibition compared against 6%; not below it gives MET, below it gives NOT MET.

Enquiry: Does the reported inhibition for Nc1nonc1-c1nc2cnccc2n1C1CCCCC1 fall at or above the 6% mark?
Return: NOT MET

Enquiry: Does the reported inhibition for CCn1c(-c2nonc2N)nc2c(C#CC(C)(C)O)nc(O[C@@H](CN)c3ccccc3)cc21 fall at or above the 6% mark?
Return: NOT MET

Enquiry: Does the reported inhibition for NS(=O)(=O)c1ccc(-c2ccc3c(NC(=O)C4CC4)n[nH]c3c2)cc1 fall at or above the 6% mark?
Return: NOT MET

Enquiry: Does the reported inhibition for NC(=O)c1sc(-n2cnc3cc(C(F)(F)F)ccc32)cc1OCc1ccccc1Br fall at or above the 6% mark?
Return: MET

Enquiry: Does the reported inhibition for COc1cc2c(cc1Nc1nc(Nc3ccsc3C(N)=O)c3cc[nH]c3n1)N(C(=O)CN(C)C)CCC2 fall at or above the 6% mark?
Return: MET

---

System: MAP kinase-activated protein kinase 5 (Homo sapiens) (UniProt Q8IW41);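 also: reported values are mean PRAK inhibition figures from the GSK PKIS screen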
Sequence (whole entry): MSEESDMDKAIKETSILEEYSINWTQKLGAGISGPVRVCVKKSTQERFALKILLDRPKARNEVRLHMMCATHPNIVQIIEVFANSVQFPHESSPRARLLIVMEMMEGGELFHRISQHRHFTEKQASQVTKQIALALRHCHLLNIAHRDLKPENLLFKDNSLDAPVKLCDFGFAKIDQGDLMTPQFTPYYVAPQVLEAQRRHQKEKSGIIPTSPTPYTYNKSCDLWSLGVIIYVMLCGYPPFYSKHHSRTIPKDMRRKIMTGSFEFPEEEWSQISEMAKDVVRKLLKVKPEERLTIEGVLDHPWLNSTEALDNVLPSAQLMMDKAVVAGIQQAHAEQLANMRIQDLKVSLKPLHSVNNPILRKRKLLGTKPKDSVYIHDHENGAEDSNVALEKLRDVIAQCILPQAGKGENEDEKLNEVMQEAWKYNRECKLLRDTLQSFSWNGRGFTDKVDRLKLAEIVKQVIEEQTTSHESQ
Experimental Setup: at 0.1 µM
Listed here are molecules together with their documented inhibition.
The answer is to be given in %; state only the numeric part.

Enquiry: Identify inhibition associated with the molecule NS(=O)(=O)c1ccc(-c2ccc3c(NC(=O)C4CC4)n[nH]c3c2)cc1
Return: 0.51

Enquiry: Identify inhibition associated with the molecule COc1cc2c(cc1Nc1nc(Nc3ccsc3C(N)=O)c3cc[nH]c3n1)N(C(=O)CN(C)C)CCC2
Return: 1.1

Enquiry: Identify inhibition associated with the molecule Fc1ccc(-c2ncn(C3CCNCC3)c2-c2ccnc(Oc3ccccc3)n2)cc1
Return: 0.89

Enquiry: Identify inhibition associated with the molecule COc1cc(C=NNc2ncnc3c2cnn3Cc2ccccc2)ccc1O
Return: -1.78

Enquiry: Identify inhibition associated with the molecule NS(=O)(=O)c1ccc(N/C=C2\C(=O)Nc3ccc4ncsc4c32)cc1
Return: 2.27

---

System: cAMP-dependent protein kinase catalytic subunit PRKX (Homo sapiens) (UniProt P51817);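 also: values are mean percent inhibition of PRKX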
Sequence (whole entry): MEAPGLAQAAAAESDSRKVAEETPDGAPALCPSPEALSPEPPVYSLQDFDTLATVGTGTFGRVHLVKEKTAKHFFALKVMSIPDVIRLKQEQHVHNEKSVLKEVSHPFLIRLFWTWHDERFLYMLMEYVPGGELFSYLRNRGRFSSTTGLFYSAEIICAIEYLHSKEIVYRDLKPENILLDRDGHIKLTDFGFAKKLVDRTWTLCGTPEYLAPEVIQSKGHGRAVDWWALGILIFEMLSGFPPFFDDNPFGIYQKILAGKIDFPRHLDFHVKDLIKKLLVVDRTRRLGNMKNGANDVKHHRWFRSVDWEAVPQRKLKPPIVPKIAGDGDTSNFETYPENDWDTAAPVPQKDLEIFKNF
Experimental Setup: at 0.1 µM
Decision: inhibition compared against 3%; not below it gives Yes, below it gives No.

# count of solved cases: 5
{"Smiles Data": "CCn1c(-c2nonc2N)nc2c(C#CC(C)(C)O)ncc(OC[C@@H]3CCCN3)c21", "Classification": "Yes"}
{"Smiles Data": "NS(=O)(=O)c1ccc(N/C=C2\\C(=O)Nc3ccc4ncsc4c32)cc1", "Classification": "No"}
{"Smiles Data": "COc1cc2c(cc1Nc1nc(Nc3ccsc3C(N)=O)c3cc[nH]c3n1)N(C(=O)CN(C)C)CCC2", "Classification": "No"}
{"Smiles Data": "Fc1ccc(-c2ncn(C3CCNCC3)c2-c2ccnc(Oc3ccccc3)n2)cc1", "Classification": "No"}
{"Smiles Data": "CCn1c(-c2nonc2N)nc2c(C#CC(C)(C)O)ncc(OCC3CCNCC3)c21", "Classification": "Yes"}

Shifting focus to the molecule that follows.
Enquiry: Does the reported inhibition for CCn1c(-c2nonc2N)nc2c(C#CCN)ncc(OCCCN)c21 fall at or above the 3% mark?
Return: Yes
